- System: Gram-negative (Gn-I), cephalothin-sensitive, 13 strains
- Method summary: Mean % relative activity to carbenicillin from geometric mean MIC
- Format: cell-based
- Recorded conditions: Gram-negative (Gn-I), 13 strains; from geometric mean of MIC
# Mean % relative activity (carbenicillin = 100%) per entry
Field: numeric (%). Do not append units.

Compound	Measured result
CCN1CCN(C(=O)N[C@@H](C(=O)N[C@@H]2C(=O)N3[C@@H]2SC(C)(C)[C@@H]3C(=O)O)c2ccc(O)c(O)c2)C(=O)C1=O [BB-P 661]	3030
CCN1CCN(C(=O)N[C@@H](C(=O)N[C@@H]2C(=O)N3[C@@H]2SC(C)(C)[C@@H]3C(=O)O)c2ccccc2)C(=O)C1=O [piperacillin, reference compound]	360
CCN1CCN(C(=O)NC(C(=O)N[C@@H]2C(=O)N3[C@@H]2SC(C)(C)[C@@H]3C(=O)O)c2ccc(O)c(O)c2)C(=O)C1=O (mixture of isomers) [BB-P 652]	1780

Please find the next compound below.
Just so you know, measured Mean % relative activity (carbenicillin = 100%) for CCN1CCN(C(=O)N[C@H](C(=O)N[C@@H]2C(=O)N3[C@@H]2SC(C)(C)[C@@H]3C(=O)O)c2ccc(O)c(O)c2)C(=O)C1=O [BB-P 660] came out at 200
